assay: acute toxicity (LD50), single oral administration to mice; settings: mouse, in vivo, p.o.
Note to self: use Condition met only for LD50 readings below 400 mg/kg; a reading exactly at 400 mg/kg still gets Condition not met.

{"compound": "COC1CN(C(=O)c2cc(-c3ccccc3)c(=O)n3c2-c2sccc2C3)C1", "qualitative_label": "Condition not met"}
{"compound": "CO[C@H]1CCN(C(=O)c2cc(-c3ccccc3)c(=O)n3c2-c2sccc2C3)C1", "qualitative_label": "Condition met"}

Field: below-cutoff. Rule: recorded LD50 strictly less than 400 mg/kg. Subject: O=C(c1cc(-c2ccccc2)c(=O)n2c1-c1sccc1C2)N1CCOCC1
Condition not met

Field: below-cutoff. Rule: recorded LD50 strictly less than 400 mg/kg. Subject: COC[C@H]1CCCN1C(=O)c1cc(-c2ccccc2)c(=O)n2c1-c1ccccc1C2 [H, (R)-2-MeOCH2 --Py--, --CH=CH--CH=CH--]
Condition not met

Field: below-cutoff. Rule: recorded LD50 strictly less than 400 mg/kg. Subject: CN1CCN(C(=O)c2cc(-c3ccccc3)c(=O)n3c2-c2ccccc2C3)CC1.Cl
Condition met

Field: below-cutoff. Rule: recorded LD50 strictly less than 400 mg/kg. Subject: COC[C@H]1CCCN1C(=O)c1cc(-c2ccccc2)c(=O)n2c1-c1sccc1C2 [H, (R)-2-MeOCH2 --Py--, --S--CH=CH--]
Condition not met

Field: below-cutoff. Rule: recorded LD50 strictly less than 400 mg/kg. Subject: CN(C)C(=O)c1cc(-c2ccccc2)c(=O)n2c1-c1ccccc1C2
Condition met

Data origin: patent US5362738A
